Provenance of the data: patent US20230121086A1

# TEST_SYSTEM: RORγt (Homo sapiens, UniProt P51449)
# Construct: […]
# Sequence (P51449 269-508 limits assumed): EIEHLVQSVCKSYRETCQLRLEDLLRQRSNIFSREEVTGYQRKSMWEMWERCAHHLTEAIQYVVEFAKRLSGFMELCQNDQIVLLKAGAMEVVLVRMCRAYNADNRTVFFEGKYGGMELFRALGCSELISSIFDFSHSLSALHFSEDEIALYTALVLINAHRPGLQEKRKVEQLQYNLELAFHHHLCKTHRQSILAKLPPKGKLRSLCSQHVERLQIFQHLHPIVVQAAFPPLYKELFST
# METHOD: Fluorescence resonance energy transfer (FRET) test, inhibitory activity of RORγt
# Format: biochemical
# APPLIED_CONDITIONS: FRET, B-RORγt LBD / Biotin-SRC1; read-out: IC50
Kindly apply the following: Satisfied if IC50 is less than 10 nM, Not satisfied in every other case.

**Q:** State whether 10 nM exceeds IC50 recorded for CCS(=O)(=O)c1ccc([C@H](CC#N)NC(=O)c2ccc(C(O)(C(F)(F)F)C(F)(F)F)cc2)cc1 .
**A:** Not satisfied

**Q:** # strict comparison: is reported IC50 < 10 nM? input = CCS(=O)(=O)c1ccc([C@@H](CC#N)NC(=O)c2ccc(N3CC(Oc4ccc(C(F)(F)F)cc4)C[C@H]3COC(F)F)cc2)cc1 (stereo in doubt)
**A:** Satisfied

**Q:** IC50 under 10 nM? Item: CCS(=O)(=O)c1ccc([C@H](CNC(=O)OC)NC(=O)c2ccc(N3C[C@@H](Oc4ccc(C(F)(F)F)cc4)C[C@H]3COC(F)F)cc2)cc1
**A:** Not satisfied

**Q:** In plain terms, does CCS(=O)(=O)c1ccc([C@H](CC#N)NC(=O)c2ccc(N3C[C@@H](Oc4ccc(-n5cnc(C)c5)cc4)C[C@H]3COC(F)F)cc2)cc1 come in under 10 nM for IC50?
**A:** Not satisfied

**Q:** Consider CCS(=O)(=O)c1ccc([C@H](CC#N)NC(=O)c2ccc(N3C[C@@H](c4ccc(C(F)(F)F)cc4)CC[C@H]3COC(F)F)c(F)c2)cc1 . Does its IC50 lie strictly below 10 nM?
**A:** Not satisfied

====

# TEST_SYSTEM: RORγt (Homo sapiens)
# Construct: […]
# METHOD: Fluorescence resonance energy transfer (FRET) test, inhibitory activity of RORγt
# Assay type: biochemical
# APPLIED_CONDITIONS: FRET, B-RORγt LBD / Biotin-SRC1; read-out: IC50
MEASUREMENT_NAME: IC50 (nM)
Quick note: give the figure in nM, leave out the unit.

**Q:** Consider the compound shown here: NC(=O)OCC(C(=O)Nc1ccc(C(O)(C(F)(F)F)C(F)(F)F)cc1)c1ccc(S(=O)(=O)CC2CC2)cc1 (stereo not drawn) What is its recorded IC50?
**A:** 55.8

**Q:** Query (compound): CCS(=O)(=O)c1ccc([C@H](CC#N)NC(=O)c2ccc(N3CC(Oc4ccc(C(F)(F)F)cc4)C[C@H]3COC(F)F)cc2F)cc1 (stereo in doubt) ; field requested: IC50
**A:** 47

**Q:** I have this compound here, CCS(=O)(=O)c1ccc([C@H](CC(=O)NO)NC(=O)c2ccc(N3C[C@@H](Oc4ccc(C(F)(F)F)cc4)C[C@H]3COC(F)F)cc2)cc1 , and I need its recorded IC50.
**A:** 13

**Q:** Tell me the measured IC50 of CCS(=O)(=O)c1ccc([C@H](CC#N)NC(=O)c2ccc(N3C[C@@H](Oc4ccc(OC(F)(F)F)cn4)C[C@H]3COC(F)F)cc2)cc1 , please.
**A:** 18.8

**Q:** Endpoint output: IC50 of CCS(=O)(=O)c1ccc([C@H](CC(=O)OC)NC(=O)c2ccc(N3C[C@@H](Oc4ccc(C(F)(F)F)cc4)C[C@H]3COC(F)F)cc2)cc1 . Value?
**A:** 21

**Q:** Consider the compound CCS(=O)(=O)c1ccc([C@H](CC#N)NC(=O)c2ccc(N3C[C@@H](Oc4ccc(C)nc4)C[C@H]3COC(F)F)cc2)cc1 and give its measured IC50.
**A:** 78.7

====

I'd appreciate it if you could supply Cmax values for the items below.
# METHOD: Pharmacokinetic evaluation in ICR mice
# Assay type: in vivo
# APPLIED_CONDITIONS: mouse, plasma, po, 5 mg/kg
Write down the numeric answer in µM and omit the unit.

**Q:** GET /values?readout=Cmax&item= CCS(=O)(=O)c1ccc([C@H](CC#N)NC(=O)c2ccc(N3C[C@@H](Oc4ccc(C(F)(F)F)cc4)C[C@H]3COC(F)F)cc2)cc1
**A:** 2.4

**Q:** Entry under review: CCS(=O)(=O)c1ccc([C@H](CC#N)NC(=O)c2ccc(N3CC(Oc4ccc(OC(F)(F)F)cc4)C[C@H]3COC(F)F)cc2)cc1 (stereo in doubt) . Reported Cmax?
**A:** 3.33

**Q:** Which Cmax reading was recorded for the compound CCS(=O)(=O)c1ccc([C@H](CC#N)NC(=O)c2ccc(N3C[C@@H](Oc4ccc(OC(F)F)cc4)C[C@H]3COC(F)F)cc2)cc1 ?
**A:** 4.8

**Q:** Please report the recorded Cmax for CCS(=O)(=O)c1ccc([C@H](CC#N)NC(=O)c2ccc(N3CC(Oc4ccc(C(F)(F)F)cn4)C[C@H]3COC(F)F)cc2)cc1 (stereo in doubt) .
**A:** 7

====

Answer each item with its documented IC50.
# TEST_SYSTEM: RORγt (Homo sapiens, UniProt P51449)
# Construct: […]
# METHOD: Fluorescence resonance energy transfer (FRET) test, inhibitory activity of RORγt
# Assay type: biochemical
# APPLIED_CONDITIONS: FRET, B-RORγt LBD / Biotin-SRC1; read-out: IC50
Response body: numeric value in nM, unit text excluded.

**Q:** GET /values?readout=IC50&item= CCS(=O)(=O)c1ccc([C@H](CC#N)NC(=O)c2ccc(N3C[C@@H](Oc4ccc(-n5cccn5)cc4)C[C@H]3COC(F)F)cc2)cc1
**A:** 13.2

**Q:** Given the compound CCS(=O)(=O)c1ccc([C@H](CC#N)NC(=O)c2ccc(N3C[C@@H](c4ccc(F)cc4)CC[C@H]3COC(F)F)cc2)cc1 , what is its reported IC50?
**A:** 23

**Q:** Look up IC50: CCS(=O)(=O)c1ccc([C@H](CC#N)NC(=O)c2ccc(N3C[C@@H](Oc4ccc(C(N)=O)cc4)C[C@H]3COC(F)F)cc2)cc1
**A:** 66

**Q:** Look at this compound and give its reported IC50. CCS(=O)(=O)c1ccc([C@H](CNC=O)NC(=O)c2ccc(N3C[C@@H](Oc4ccc(C(F)(F)F)cc4)C[C@H]3COC(F)F)cc2)cc1
**A:** 15.2

**Q:** What value of IC50 has been recorded for this entry: CCS(=O)(=O)c1ccc([C@H](CN(C)C)NC(=O)c2ccc(N3C[C@@H](Oc4ccc(C(F)(F)F)cc4)C[C@H]3COC(F)F)cc2)cc1
**A:** 60

**Q:** What does the data say about its IC50? Entry: CCS(=O)(=O)c1ccc([C@H](CC#N)NC(=O)c2ccc(N3C[C@@H](Oc4ccc(OC(F)F)cc4)C[C@H]3COC(F)F)cc2)nc1
**A:** 31.4

====

# TEST_SYSTEM: RORγt (Homo sapiens)
# Construct: […]
# Sequence (P51449 269-508 limits assumed): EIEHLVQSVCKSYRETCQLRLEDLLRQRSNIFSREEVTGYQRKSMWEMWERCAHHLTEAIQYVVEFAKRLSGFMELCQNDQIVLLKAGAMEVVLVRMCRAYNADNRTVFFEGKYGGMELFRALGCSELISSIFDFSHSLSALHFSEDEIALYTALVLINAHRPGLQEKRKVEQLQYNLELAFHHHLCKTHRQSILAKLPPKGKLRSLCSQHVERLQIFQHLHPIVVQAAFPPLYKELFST
# METHOD: Fluorescence resonance energy transfer (FRET) test, inhibitory activity of RORγt
# Type: biochemical
# APPLIED_CONDITIONS: FRET, B-RORγt LBD / Biotin-SRC1; read-out: IC50
MEASUREMENT_NAME: pIC50
Field pIC50 (float): negative decimal logarithm of the concentration in molar.

**Q:** Lookup: pIC50 / RORγt (Homo sapiens) / CCS(=O)(=O)c1ccc([C@H](CC#N)NC(=O)c2ccc(N3C[C@@H](Oc4ccc(C5CC5)cn4)C[C@H]3COC(F)F)cc2)cc1 [Example 40]
**A:** 7.68

**Q:** For the record CCS(=O)(=O)c1ccc([C@H](CC#N)NC(=O)c2ccc(N3C[C@@H](Oc4ccc(F)cc4)C[C@H]3COC(F)F)cc2)cc1 [Example 28] , what value of pIC50 is listed for RORγt (Homo sapiens)?
**A:** 7.62

**Q:** Test system RORγt (Homo sapiens); read-out pIC50; what value for CCS(=O)(=O)c1ccc([C@H](COC(N)=O)NC(=O)c2cnc(N3CC(F)(F)CC3c3cccc(F)c3)nc2)cc1 (stereo partly drawn) [Example 179] ?
**A:** 8.03

**Q:** Item CCS(=O)(=O)c1ccc([C@H](CC(=O)NCC(=O)OC)NC(=O)c2ccc(N3C[C@@H](Oc4ccc(C(F)(F)F)cc4)C[C@H]3COC(F)F)cc2)cc1 [Example 99] with RORγt (Homo sapiens) - pIC50?
**A:** 7.60

**Q:** What reported pIC50 corresponds to CCS(=O)(=O)c1ccc([C@@H](CC#N)NC(=O)c2ccc(N3C[C@@H](c4ccc(C(F)(F)F)cc4)CC[C@H]3COCC3CC3)cc2)cc1 [Example 109-1] on RORγt (Homo sapiens)?
**A:** 8.15

**Q:** Param readout= pIC50; system= RORγt (Homo sapiens); entry= CCS(=O)(=O)c1ccc([C@H](CC(=O)NCC(=O)O)NC(=O)c2ccc(N3C[C@@H](Oc4ccc(C(F)(F)F)cc4)C[C@H]3COC(F)F)cc2)cc1 [Example 100] ; returns value.
**A:** 7.85
